Molecular target: CXC chemokine receptor type 4 (CXCR4) (human, UniProt P61073 1-352)
Sequence (P61073 whole entry): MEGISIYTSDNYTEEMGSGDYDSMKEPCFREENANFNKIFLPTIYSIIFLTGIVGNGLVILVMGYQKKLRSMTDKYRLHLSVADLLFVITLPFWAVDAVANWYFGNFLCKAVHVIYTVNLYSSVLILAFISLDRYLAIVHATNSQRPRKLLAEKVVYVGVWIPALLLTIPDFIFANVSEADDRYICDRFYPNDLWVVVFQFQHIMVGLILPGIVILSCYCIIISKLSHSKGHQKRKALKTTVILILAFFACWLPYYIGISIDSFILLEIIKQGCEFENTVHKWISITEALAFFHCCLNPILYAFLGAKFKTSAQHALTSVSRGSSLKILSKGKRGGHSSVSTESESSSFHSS
Assay: cell-based or functional assay
Where no end group is shown, it is not given here. [ ]: non-standard residue; d: D form. The star is where a group is joined. Myristoyl = CCCCCCCCCCCCCC(=O)*
The entries below come with measured IC50, HIV inhibition assay values attached.

binder	IC50, HIV inhibition assay
[dL]LRWSRK(Myristoyl)-NH2 (N-terminus assumed; SMILES CCCCCCCCCCCCCC(=O)NCCCC[C@H](NC(=O)[C@H](CCCNC(=N)N)NC(=O)[C@H](CO)NC(=O)[C@H](Cc1c[nH]c2ccccc12)NC(=O)[C@H](CCCNC(=N)N)NC(=O)[C@H](CC(C)C)NC(=O)[C@H](N)CC(C)C)C(N)=O) [JM#261]	> 150 nM
ILRWSRKMPCFS [JM#19]	5 to 10 nM
IVRWSKK-NH2 [JM#110]	> 150 nM
GLRWSRKMPCVS [JM#31]	> 150 nM
IVRWSKKLPCVS [JM#5]	> 150 nM
